Biological target: Recombinant human Gal3 (rhGal3) (TrueBinding, #QC200361) (human, UniProt P17931 2-250); note: test concentration or dose not given here
Assay: cell-based or functional assay
The binders listed here are annotated with their % inhibition of TNFα secretion.
experimentalEndpoint: % inhibition of TNFα secretion

• F846C.1H12 (antibody, human IgG4 S228P, kappa, V domains shown) VH: QIQLVQSGPELKKPGETVKISCKASGYTFTNFGMNWVKQAPGKGLKWMGWINTYTGEPSYADDFKGRFAFSLETSASTAYLQINNLKNEDIATYFCARWGGYAGDYYAMDYWGQGTSVTVSS VL: NIMMTQSPSSLAVSAGQKVTMSCKSSQSVLYSSSQKNYLAWYQQKPGQSPKLLIYWASTRESGVPDRFSGSGSGTDFTLTISSVQPEDLAVYYCHQYLSSLTFGAGTKLELKR = 95.3%
• F846C.2H3 (antibody, human IgG4 S228P, kappa, V domains shown) VH: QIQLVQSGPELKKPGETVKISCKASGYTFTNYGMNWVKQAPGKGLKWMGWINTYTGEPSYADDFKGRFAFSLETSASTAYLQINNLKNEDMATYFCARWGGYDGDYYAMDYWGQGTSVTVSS VL: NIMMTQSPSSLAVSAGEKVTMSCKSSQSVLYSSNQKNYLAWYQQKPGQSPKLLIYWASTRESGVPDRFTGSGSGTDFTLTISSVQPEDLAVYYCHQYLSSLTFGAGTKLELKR = 62.8%
• 847.20H7 (antibody, V domains shown) VH: QVQLQQSGAELVRPGASVNLSCKASGYTFTNYWMNWVKQRPGQGLEWVGMIDPSDSETHYNQMFKDKATLTIDKSSSIAYMQLSSLTSEDSAVYYCARWGAMDYWGQGTSVTVSS VL: DIVMTQSHKIMSTSVGDRVSITCKASQDVSTTVAWFQQKPGQSPKLLLYWASTRHTGVPDRFTGSGSGTDYTLTISSVQAEDLALYYCQQHYSPPFTFGSGTKLEIK = -185%
